The measurements presented in this section are drawn from patent US20110059095A1.

molecular target: T1, Peptide A (human PAR-2), C-terminal biotinylated (Human, C-terminal biotin via G4S linker); assay: peptide ELISA titration
T1 construct: also called Peptide A C-Term
readout name: pEC50
pEC50 is a log-scale quantity: -log10 of the concentration expressed in molar.

Query: Could you share which pEC50 value was measured for H4H618N (antibody, human IgG4, V domains shown, also called H2M618N variable regions) VH: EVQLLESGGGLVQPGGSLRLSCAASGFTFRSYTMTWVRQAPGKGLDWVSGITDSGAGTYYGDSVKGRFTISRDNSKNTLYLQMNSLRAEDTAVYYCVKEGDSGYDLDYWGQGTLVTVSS VL: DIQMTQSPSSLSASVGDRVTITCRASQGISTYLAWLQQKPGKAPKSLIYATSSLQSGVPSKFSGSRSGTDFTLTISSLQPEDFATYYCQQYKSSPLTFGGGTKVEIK ?
Result: 10.80

Query: pEC50 for H4H591N (antibody, human IgG4, V domains shown, also called H2M591N variable regions) VH: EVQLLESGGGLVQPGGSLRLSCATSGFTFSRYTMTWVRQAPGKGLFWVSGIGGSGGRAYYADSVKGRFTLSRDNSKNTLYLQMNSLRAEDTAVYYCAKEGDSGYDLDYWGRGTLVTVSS VL: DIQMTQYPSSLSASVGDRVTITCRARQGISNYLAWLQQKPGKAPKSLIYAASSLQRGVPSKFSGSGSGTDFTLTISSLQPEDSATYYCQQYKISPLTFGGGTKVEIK ?
Result: 10.80

Query: // pEC50 lookup, key: H4H580P (antibody, human IgG4, V domains shown, also called H1H580P variable regions) VH: QVQLVESGGGVVQPGRSLRLSCVASGFTFSRYGMHWVRQAPGKGLEWVVVISYDGINKYYADSVKGRFTISRDNSKNTVYLQMNSLRAEDTAVYHCAKGDFWSGYFDYWGQGTLVTVSS VL: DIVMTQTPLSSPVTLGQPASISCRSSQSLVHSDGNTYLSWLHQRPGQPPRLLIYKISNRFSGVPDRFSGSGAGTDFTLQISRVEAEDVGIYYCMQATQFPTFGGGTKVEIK
Result: 9.69
